The reported numbers originate from ChEMBL document CHEMBL1201862.

# Tested on: IGROV-1
# method: NCI tumour cell line growth inhibition, 48 h
Calls of active or inactive are those of the source. Cut-off read from the data, not from the text of the source: active = GI50 up to about 1.1 µM and inactive = higher.
value-type: GI50

Ask | Field request: GI50 | item: COc1ccc(/C=C/C(=O)c2c(-c3ccccc3)nn(C)c(=O)c2N2CC2C)cc1 (stereo not drawn)
Reply | 59.3 µM (inactive)

Ask | What measured GI50 goes with CC(C)(C)C(=O)OCC1C(=O)OCC1C(=O)N1Cc2cc3ccccc3nc2C1 (stereo not drawn) ?
Reply | 15 µM (inactive)

Ask | Value lookup for GI50; key = O=c1ncccn1[C@@H]1O[C@H](CO)[C@H](O)C1O (stereo partly drawn)
Reply | > 100 µM (inactive)

Ask | Recorded GI50 for O=C(O)c1ccc(NS(=O)(=O)Cc2ccccc2)cc1 , please?
Reply | > 100 µM (inactive)

Ask | Looking for the measured GI50 of Cc1nc(O)nc2nc3cc(Cl)cc(Cl)c3c(NC(C)(CO)CO)c12 , can you help?
Reply | 35.9 µM (inactive)

Ask | Which GI50 is reported for this molecule? C=CCN(N=O)C(=O)NCCCC(NC(C)=O)C(=O)NCc1ccccc1 (stereo not drawn)
Reply | > 100 µM (inactive)

Ask | Which measured GI50 value corresponds to CCOC(=O)CCc1ccc(NC(=O)/C=C/c2ccc([N+](=O)[O-])o2)cc1 ?
Reply | 3.5 µM (inactive)

Ask | Need GI50, item NC(=O)C(=CNC(N)=S)C(N)=O
Reply | > 100 µM (inactive)

* * *

# Test system: IGROV-1
# method: NCI tumour cell line growth inhibition, 48 h
Calls of active or inactive are those of the source. Rule as the data show it: active = GI50 up to about 1.1 µM and inactive = higher.
Pick from active, inactive when you respond.

Ask | Dear all, I need the recorded test outcome for O=c1[nH]c2cccccc-2c1-c1nc2ccccc2[nH]1 , thank you.
Reply | inactive

Ask | Field: outcome | Entry: CCC[C@@H](O)C[C@@H]1CCC[C@H](C[C@@H](O)CC)N1C
Reply | inactive

Ask | Answer briefly: the call reported for Cc1nc2ccc(S(=O)(=O)Nc3ccccc3Cl)cc2c(=O)n1NC(=O)CNc1ccccc1Cl in this assay.
Reply | inactive

Ask | Name the outcome recorded for CCCCC1(N=[N+]=[N-])C(=O)c2cccc3c2N(CCC3)C1=O (stereo unspecified) in the assay.
Reply | inactive

Ask | How did this test come out for CCC1(OC(=O)CN)C(=O)OCc2c1cc1n(c2=O)Cc2cc3ccccc3nc2-1 (stereo unspecified) ?
Reply | active

Ask | # lookup: test call for CCC(=O)N/S(=N/S(=O)(=O)c1ccccc1)C(Cl)(Cl)Cl (stereo unspecified)
Reply | inactive

* * *

# Tested on: OVCAR-5
# method: NCI tumour cell line growth inhibition, 48 h
Active and inactive are the calls of the source. Rule as the data show it: active = GI50 up to about 1.1 µM and inactive = higher.
value-type: GI50

Ask | Recorded GI50 for CCOC1=NC(O)c2cccn2-c2sccc21 (stereo not drawn) , please?
Reply | > 100 µM (inactive)

Ask | Look at this compound and give its reported GI50. Cc1cc2c(cc1C)C(=O)c1ncccc1C2=O
Reply | 21.1 µM (inactive)

Ask | Give its GI50 value. Item: CCN(CC)CC(C(=O)Nc1c(C)cccc1C)/C(C)=N/NC(N)=S (stereo not drawn)
Reply | > 100 µM (inactive)

Ask | Report GI50 for CC1=CC2=C(OCO1)C(=O)c1ccccc1C2=O please.
Reply | 6.21 µM (inactive)

Ask | # input compound: CCOC1NC(=O)Oc2cc3ccccc3cc21 (stereo not drawn) ; wanted: its GI50
Reply | > 100 µM (inactive)

Ask | For Cc1cn(C2CC(N/C(=N/C#N)NCC3OC(n4cnc5c(N)ncnc54)CC3O)C(CO)O2)c(=O)[nH]c1=O (stereo not drawn) , what is its reported GI50?
Reply | > 100 µM (inactive)

Ask | Which GI50 value is on record for COC(=O)C(Cc1nc2ccc(Cl)cc2nc1O)C(=O)C(=O)Nc1cc(C)ccc1C (stereo not drawn) ?
Reply | > 100 µM (inactive)

Ask | Consider the compound shown here: CCOC1OC(COC(=O)C(C)(C)C)C(O)CC1n1cc(C)c(=O)[nH]c1=O (stereo not drawn) What is its recorded GI50?
Reply | > 100 µM (inactive)

Ask | Fill in: GI50 of COc1cc(/C=N/n2c(C)n[nH]c2=O)cc(OC)c1OC is ___
Reply | 80.5 µM (inactive)

Ask | Item under review: CCSC(=O)/C=C1\CN(C(=O)OC(C)(C)C)C1C(=O)OC(C)(C)C (stereo not drawn) . Reported GI50?
Reply | 6.24 µM (inactive)

Ask | Any idea what GI50 was measured for O=C1CNNC(CSc2nc3ccc(I)cc3c(=O)n2Cc2ccccc2)=N1 ?
Reply | 41.2 µM (inactive)

Ask | Would you mind telling me what GI50 value was observed for Cc1ccc(C2SCC(=O)N2NC(=O)c2ccncc2)s1 (stereo not drawn) ?
Reply | > 100 µM (inactive)

Ask | Reported GI50 for COc1ccc(/C=C(/C)[N+](=O)[O-])cc1 : what is it?
Reply | 3.19 µM (inactive)
